Quick list: melting temperature per entry.
# System: HeLa Kyoto
# ASSAY: melting temperature (median over replicates), in situ; higher = more thermally stable
# CONDITION: cell cycle stage: G1/S
// units = °C; emit number, no label

sequence_content="MGELPLDINIQEPRWDQSTFLGRARHFFTVTDPRNLLLSGAQLEASRNIVQNYRAGVVTPGITEDQLWRAKYVYDSAFHPDTGEKVVLIGRMSAQVPMNMTITGCMLTFYRKTPTVVFWQWVNQSFNAIVNYSNRSGDTPITVRQLGTAYVSATTGAVATALGLKSLTKHLPPLVGRFVPFAAVAAANCINIPLMRQRELQVGIPVADEAGQRLGYSVTAAKQGIFQVVISRICMAIPAMAIPPLIMDTLEKKDFLKRRPWLGAPLQVGLVGFCLVFATPLCCALFPQKSSIHISNLEPELRAQIHEQNPSVEVVYYNKGL [SFXN3]" test_system="HeLa Kyoto" reported=53.6

Given the sequence MAARWRFWCVSVTMVVALLIVCDVPSASAQRKKEMVLSEKVSQLMEWTNKRPVIRMNGDKFRRLVKAPPRNYSVIVMFTALQLHRQCVVCKQADEEFQILANSWRYSSAFTNRIFFAMVDFDEGSDVFQMLNMNSAPTFINFPAKGKPKRGDTYELQVRGFSAEQIARWIADRTDVNIRVIRPPNYAGPLMLGLLLAVIGGLVYLRRSNMEFLFNKTGWAFAALCFVLAMTSGQMWNHIRGPPYAHKNPHTGHVNYIHGSSQAQFVAETHIVLLFNGGVTLGMVLLCEAATSDMDIGKRKIMCVAGIGLVVLFFSWMLSIFRSKYHGYPYSFLMS [MAGT1] , what is its reported melting temperature?
53.9

====

# Test system: HeLa Kyoto
# ASSAY: thermal stability score vs G1/S (z-score of summed log2 fold changes over temperatures); higher = more thermally stable than in G1/S
# CONDITION: cell cycle stage: early G1 (4.5 h after nocodazole release)
MEASURED QUANTITY: thermal stability score

Given the sequence MVHCSCVLFRKYGNFIDKLRLFTRGGSGGMGYPRLGGEGGKGGDVWVVAQNRMTLKQLKDRYPRKRFVAGVGANSKISALKGSKGKDCEIPVPVGISVTDENGKIIGELNKENDRILVAQGGLGGKLLTNFLPLKGQKRIIHLDLKLIADVGLVGFPNAGKSSLLSCVSHAKPAIADYAFTTLKPELGKIMYSDFKQISVADLPGLIEGAHMNKGMGHKFLKHIERTRQLLFVVDISGFQLSSHTQYRTAFETIILLTKELELYKEELQTKPALLAVNKMDLPDAQDKFHELMSQLQNPKDFLHLFEKNMIPERTVEFQHIIPISAVTGEGIEELKNCIRKSLDEQANQENDALHKKQLLNLWISDTMSSTEPPSKHAVTTSKMDII [GTPBP10] , what is its reported thermal stability score?
-0.944

====

# Test system: HeLa Kyoto
# ASSAY: solubility change mitosis vs G1/S (difference of NP-40 vs SDS log2 ratios) (log2 ratio difference); higher = more soluble in mitosis
Label no (0) if solubility change mitosis (log2) falls below 0.03; label yes (1) in every other case.

These recorded examples may help you get a feel for the data.
sequence_content="MAGRGGAARPNGPAAGNKICQFKLVLLGESAVGKSSLVLRFVKGQFHEYQESTIGAAFLTQTVCLDDTTVKFEIWDTAGQERYHSLAPMYYRGAQAAIVVYDITNTDTFARAKNWVKELQRQASPNIVIALAGNKADLASKRAVEFQEAQAYADDNSLLFMETSAKTAMNVNEIFMAIAKKLPKNEPQNATGAPGRNRGVDLQENNPASRSQCCSN [RAB5C]" class="no (0)"
sequence_content="MAEQATKSVLFVCLGNICRSPIAEAVFRKLVTDQNISENWRVDSAATSGYEIGNPPDYRGQSCMKRHGIPMSHVARQITKEDFATFDYILCMDESNLRDLNRKSNQVKTCKAKIELLGSYDPQKQLIIEDPYYGNDSDFETVYQQCVRCCRAFLEKAH [ACP1]" class="no (0)"
sequence_content="MAVTITLKTLQQQTFKIRMEPDETVKVLKEKIEAEKGRDAFPVAGQKLIYAGKILSDDVPIRDYRIDEKNFVVVMVTKTKAGQGTSAPPEASPTAAPESSTSFPPAPTSGMSHPPPAAREDKSPSEESAPTTSPESVSGSVPSSGSSGREEDAASTLVTGSEYETMLTEIMSMGYERERVVAALRASYNNPHRAVEYLLTGIPGSPEPEHGSVQESQVSEQPATEAAGENPLEFLRDQPQFQNMRQVIQQNPALLPALLQQLGQENPQLLQQISRHQEQFIQMLNEPPGELADISDVEGEVGAIGEEAPQMNYIQVTPQEKEAIERLKALGFPESLVIQAYFACEKNENLAANFLLSQNFDDE [RAD23A]" class="yes (1)"
sequence_content="MADHSFSDGVPSDSVEAAKNASNTEKLTDQVMQNPRVLAALQERLDNVPHTPSSYIETLPKAVKRRINALKQLQVRCAHIEAKFYEEVHDLERKYAALYQPLFDKRREFITGDVEPTDAESEWHSENEEEEKLAGDMKSKVVVTEKAAATAEEPDPKGIPEFWFTIFRNVDMLSELVQEYDEPILKHLQDIKVKFSDPGQPMSFVLEFHFEPNDYFTNSVLTKTYKMKSEPDKADPFSFEGPEIVDCDGCTIDWKKGKNVTVKTIKKKQKHKGRGTVRTITKQVPNESFFNFFNPLKASGDGESLDEDSEFTLASDFEIGHFFRERIVPRAVLYFTGEAIEDDDNFEEGEEGEEEELEGDEEGEDEDDAEINPKV [NAP1L4]" class="no (0)"
sequence_content="MVAWRSAFLVCLAFSLATLVQRGSGDFDDFNLEDAVKETSSVKQPWDHTTTTTTNRPGTTRAPAKPPGSGLDLADALDDQDDGRRKPGIGGRERWNHVTTTTKRPVTTRAPANTLGNDFDLADALDDRNDRDDGRRKPIAGGGGFSDKDLEDIVGGGEYKPDKGKGDGRYGSNDDPGSGMVAEPGTIAGVASALAMALIGAVSSYISYQQKKFCFSIQQGLNADYVKGENLEAVVCEEPQVKYSTLHTQSAEPPPPPEPARI [CD99L2]" class="no (0)"
sequence_content="MLSALARPASAALRRSFSTSAQNNAKVAVLGASGGIGQPLSLLLKNSPLVSRLTLYDIAHTPGVAADLSHIETKAAVKGYLGPEQLPDCLKGCDVVVIPAGVPRKPGMTRDDLFNTNATIVATLTAACAQHCPEAMICVIANPVNSTIPITAEVFKKHGVYNPNKIFGVTTLDIVRANTFVAELKGLDPARVNVPVIGGHAGKTIIPLISQCTPKVDFPQDQLTALTGRIQEAGTEVVKAKAGAGSATLSMAYAGARFVFSLVDAMNGKEGVVECSFVKSQETECTYFSTPLLLGKKGIEKNLGIGKVSSFEEKMISDAIPELKASIKKGEDFVKTLK [MDH2]" class="no (0)"
sequence_content="MKFRAKIVDGACLNHFTRISNMIAKLAKTCTLRISPDKLNFILCDKLANGGVSMWCELEQENFFNEFQMEGVSAENNEIYLELTSENLSRALKTAQNARALKIKLTNKHFPCLTVSVELLSMSSSSRIVTHDIPIKVIPRKLWKDLQEPVVPDPDVSIYLPVLKTMKSVVEKMKNISNHLVIEANLDGELNLKIETELVCVTTHFKDLGNPPLASESTHEDRNVEHMAEVHIDIRKLLQFLAGQQVNPTKALCNIVNNKMVHFDLLHEDVSLQYFIPALS [HUS1]" class="no (0)"
sequence_content="MEGQRWLPLEANPEVTNQFLKQLGLHPNWQFVDVYGMDPELLSMVPRPVCAVLLLFPITEKYEVFRTEEEEKIKSQGQDVTSSVYFMKQTISNACGTIGLIHAIANNKDKMHFESGSTLKKFLEESVSMSPEERARYLENYDAIRVTHETSAHEGQTEAPSIDEKVDLHFIALVHVDGHLYELDGRKPFPINHGETSDETLLEDAIEVCKKFMERDPDELRFNAIALSAA [UCHL3]" class="yes (1)"

Is the recorded value of solubility change mitosis (log2) equal to or greater than 0.03 for this sequence? MALVSADSRIAELLTELHQLIKQTQEERSRSEHNLVNIQKTHERMQTENKISPYYRTKLRGLYTTAKADAEAECNILRKALDKIAEIKSLLEERRIAAKIAGLYNDSEPPRKTMRRGVLMTLLQQSAMTLPLWIGKPGDKPPPLCGAIPASGDYVARPGDKVAARVKAVDGDEQWILAEVVSYSHATNKYEVDDIDEEGKERHTLSRRRVIPLPQWKANPETDPEALFQKEQLVLALYPQTTCFYRALIHAPPQRPQDDYSVLFEDTSYADGYSPPLNVAQRYVVACKEPKKK [SGF29]
yes (1)

Is the recorded value of solubility change mitosis (log2) equal to or greater than 0.03 for this sequence? MAAAAAETPEVLRECGCKGIRTCLICERQRGSDPPWELPPAKTYRFIYCSDTGWAVGTEESDFEGWAFPFPGVMLIEDFVTREEEAELVRLMDRDPWKLSQSGRRKQDYGPKVNFRKQKLKTEGFCGLPSFSREVVRRMGLYPGLEGFRPVEQCNLDYCPERGSAIDPHLDDAWLWGERLVSLNLLSPTVLSMCREAPGSLLLCSAPSAAPEALVDSVIAPSRSVLCQEVEVAIPLPARSLLVLTGAARHQWKHAIHRRHIEARRVCVTFRELSAEFGPGGRQQELGQELLRIALSFQGRPV [ALKBH4]
no (0)

Is the recorded value of solubility change mitosis (log2) equal to or greater than 0.03 for this sequence? MRDADADAGGGADGGDGRGGHSCRGGVDTAAAPAGGAPPAHAPGPGRDAASAARGSRMRPHIFTLSVPFPTPLEAEIAHGSLAPDAEPHQRVVGKDLTVSGRILVVRWKAEDCRLLRISVINFLDQLSLVVRTMQRFGPPVSR [LAGE3]
no (0)
